Data provenance is patent US20170226172A1.

Target entity: alpha-Klotho with endogenous FGFRs on HEK293-alphaKlotho cells
Sequence (chain, as listed by the source, chain 1 of 2): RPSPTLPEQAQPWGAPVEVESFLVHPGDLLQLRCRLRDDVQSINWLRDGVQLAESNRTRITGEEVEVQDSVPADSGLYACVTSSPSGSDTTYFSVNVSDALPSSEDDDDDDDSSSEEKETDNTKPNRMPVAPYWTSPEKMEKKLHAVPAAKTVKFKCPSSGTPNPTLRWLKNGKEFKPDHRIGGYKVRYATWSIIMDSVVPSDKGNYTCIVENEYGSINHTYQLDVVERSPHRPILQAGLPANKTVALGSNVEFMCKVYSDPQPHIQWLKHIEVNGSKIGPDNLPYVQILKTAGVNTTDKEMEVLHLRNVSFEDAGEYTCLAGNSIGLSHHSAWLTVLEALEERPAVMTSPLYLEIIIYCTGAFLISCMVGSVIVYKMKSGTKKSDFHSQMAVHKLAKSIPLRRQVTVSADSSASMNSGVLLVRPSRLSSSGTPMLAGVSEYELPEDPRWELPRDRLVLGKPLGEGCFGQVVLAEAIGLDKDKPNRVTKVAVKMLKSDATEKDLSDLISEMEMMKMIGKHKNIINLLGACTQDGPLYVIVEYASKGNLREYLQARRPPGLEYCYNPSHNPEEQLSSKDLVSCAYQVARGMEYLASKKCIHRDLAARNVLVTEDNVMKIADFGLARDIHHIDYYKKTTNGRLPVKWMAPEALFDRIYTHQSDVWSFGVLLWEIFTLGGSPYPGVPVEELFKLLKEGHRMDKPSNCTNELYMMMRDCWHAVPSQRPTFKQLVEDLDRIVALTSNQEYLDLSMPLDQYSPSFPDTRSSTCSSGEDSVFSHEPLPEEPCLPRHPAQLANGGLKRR
Sequence (chain, as listed by the source, chain 2 of 2): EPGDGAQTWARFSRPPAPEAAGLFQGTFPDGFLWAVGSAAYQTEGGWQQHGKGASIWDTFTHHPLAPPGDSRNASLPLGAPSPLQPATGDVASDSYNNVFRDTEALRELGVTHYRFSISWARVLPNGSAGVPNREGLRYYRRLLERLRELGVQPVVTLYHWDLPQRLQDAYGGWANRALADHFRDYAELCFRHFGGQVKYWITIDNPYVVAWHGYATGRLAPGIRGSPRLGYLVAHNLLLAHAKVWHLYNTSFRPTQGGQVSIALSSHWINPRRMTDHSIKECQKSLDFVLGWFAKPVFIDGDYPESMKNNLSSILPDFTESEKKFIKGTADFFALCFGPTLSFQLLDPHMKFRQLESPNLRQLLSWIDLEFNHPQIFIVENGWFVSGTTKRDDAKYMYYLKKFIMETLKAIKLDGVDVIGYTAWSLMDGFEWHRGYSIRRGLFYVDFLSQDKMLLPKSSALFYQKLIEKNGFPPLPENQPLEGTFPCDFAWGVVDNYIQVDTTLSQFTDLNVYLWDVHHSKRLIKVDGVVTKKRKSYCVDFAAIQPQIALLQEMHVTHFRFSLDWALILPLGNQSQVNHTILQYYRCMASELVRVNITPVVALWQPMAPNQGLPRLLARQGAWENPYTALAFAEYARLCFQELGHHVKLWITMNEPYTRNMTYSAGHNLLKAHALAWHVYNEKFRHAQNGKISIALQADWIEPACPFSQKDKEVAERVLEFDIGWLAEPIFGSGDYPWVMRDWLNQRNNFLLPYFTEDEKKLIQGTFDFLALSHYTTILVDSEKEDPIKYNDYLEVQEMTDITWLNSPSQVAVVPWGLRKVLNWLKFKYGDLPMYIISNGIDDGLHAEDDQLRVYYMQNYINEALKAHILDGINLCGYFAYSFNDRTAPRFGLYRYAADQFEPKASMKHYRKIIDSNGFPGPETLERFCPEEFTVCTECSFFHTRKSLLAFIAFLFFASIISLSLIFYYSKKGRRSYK
Assay method text: FACS competition on HEK293-alphaKlotho cells: peptide 0.01 to about 1000 nM against 0.2 ug/mL full-length human FGF23, geo mean of PE intensity
pIC50: −log10 of the molar value.

Binder	pIC50
Wild Type Human FGF23 c-tail 180-251 (72 amino acid peptide) (also called FGF23 c-tail peptide; unconjugated FGF23 c-tail peptide) peptide: SAEDDSERDPLNVLKPRARMTPAPASCSQELPSAEDNSPMASDPLGVVRGGRVNTHAGGTGPEGCRPFAKFI	8.54
